molecular target: ITK (Homo sapiens); assay: Inhibition of a panel of kinases, in vitro HotSpot kinase assay: ITK; format: biochemical; settings: Table 15, C compounds; 1 μM ATP
MEASURED_QUANTITY: IC50

* C=CC(=O)N1CCC[C@@H](Nc2nnc(C(N)=O)c(Nc3ccc(C(C)(C)C)cc3)n2)C1 | ≤ 10 nM
* C=CC(=O)N1CCC(C)(c2ccc(Nc3nc(N[C@@H]4CCCN(C(=O)C=C)C4)nnc3C(N)=O)cc2)CC1 | ≤ 10 nM
* C=CC(=O)N1CCC[C@@H](Nc2nnc(C(N)=O)c(Nc3cccc(-c4ncco4)c3)n2)C1 | 10 to 100 nM
* C=CC(=O)N1CCC[C@@H](Nc2nnc(C(N)=O)c(Nc3cccc(-n4nccn4)c3)n2)C1 | 10 to 100 nM
* C=CC(=O)N1CCC[C@@H](N(C)c2cnc(C(N)=O)c(Nc3ccc(C4(C)CCN(C5CCCC5)CC4)cc3)n2)C1 | ≤ 10 nM

Kindly review the next compound as well.
Problem: Consider the compound C=CC(=O)N1CCC[C@@H](Nc2nnc(C(N)=O)c(Nc3ccc(-c4ncccn4)cc3)n2)C1 and give its measured IC50.
Solution: 10 to 100 nM

---

target: UniProt:P00533; assay: Inhibition of a panel of kinases, in vitro HotSpot kinase assay: EGFR; format: biochemical; details: D-compounds panel data; 1 μM ATP
Sequence (P00533 25-1210): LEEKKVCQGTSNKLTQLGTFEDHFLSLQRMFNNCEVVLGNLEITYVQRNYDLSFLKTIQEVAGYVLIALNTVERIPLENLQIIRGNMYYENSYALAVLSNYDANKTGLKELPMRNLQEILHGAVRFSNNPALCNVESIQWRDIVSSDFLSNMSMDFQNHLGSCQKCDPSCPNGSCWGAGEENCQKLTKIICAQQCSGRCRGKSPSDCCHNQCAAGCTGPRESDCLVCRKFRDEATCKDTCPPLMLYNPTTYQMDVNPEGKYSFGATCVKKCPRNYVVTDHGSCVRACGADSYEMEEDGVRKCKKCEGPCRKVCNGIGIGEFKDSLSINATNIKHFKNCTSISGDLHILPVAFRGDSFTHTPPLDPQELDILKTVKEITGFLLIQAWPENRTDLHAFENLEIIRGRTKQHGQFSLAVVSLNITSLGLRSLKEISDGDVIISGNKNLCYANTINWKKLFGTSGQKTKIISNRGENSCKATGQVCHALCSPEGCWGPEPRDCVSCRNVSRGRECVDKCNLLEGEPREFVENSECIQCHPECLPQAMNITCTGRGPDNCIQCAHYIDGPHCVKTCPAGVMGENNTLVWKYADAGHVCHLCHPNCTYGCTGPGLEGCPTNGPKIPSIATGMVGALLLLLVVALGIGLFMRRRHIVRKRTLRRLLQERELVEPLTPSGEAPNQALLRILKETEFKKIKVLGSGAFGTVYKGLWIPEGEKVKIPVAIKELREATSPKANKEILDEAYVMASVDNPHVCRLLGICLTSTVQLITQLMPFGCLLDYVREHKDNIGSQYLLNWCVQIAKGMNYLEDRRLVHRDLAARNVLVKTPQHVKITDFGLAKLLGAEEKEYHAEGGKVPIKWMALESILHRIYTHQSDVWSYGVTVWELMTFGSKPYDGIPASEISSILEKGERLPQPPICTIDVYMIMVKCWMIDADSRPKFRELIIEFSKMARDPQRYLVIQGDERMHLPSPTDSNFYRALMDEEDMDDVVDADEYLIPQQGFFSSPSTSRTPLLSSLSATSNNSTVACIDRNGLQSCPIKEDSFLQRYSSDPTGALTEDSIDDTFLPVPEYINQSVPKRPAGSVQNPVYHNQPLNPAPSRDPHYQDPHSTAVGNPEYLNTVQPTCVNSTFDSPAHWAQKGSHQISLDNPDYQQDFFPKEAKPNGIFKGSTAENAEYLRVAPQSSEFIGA
IC50 values, listed per item

Check out these entries, answers already filled in.
- C[C@@H]1C[C@@H](NC(=O)c2ccc(C3CC3)cc2)CN(c2cnc(C(N)=O)c(Nc3cnn(C)c3)n2)C1 [Example D-31]: > 10 µM
- Cc1cc(Nc2nc(N3C[C@H](NC(=O)N(C)C)CC[C@H]3C)cnc2C(N)=O)sn1 [Example D-77]: 1 to 10 µM
- Cc1cc(Nc2nc(N3CCC[C@@H](NC(=O)N4Cc5ccccc5C4=O)C3)cnc2C(N)=O)sn1 [Example D-15]: 0.1 to 1 µM
- Cc1cc(Nc2nc(N3CCC[C@@H](NC(=O)N(C)C)[C@H]3CO)cnc2C(N)=O)sn1 [Example D-67]: 0.1 to 1 µM
- C[C@@H]1[C@H](NC(=O)c2ccc(C3CC3)cc2)CCCN1c1cnc(C(N)=O)c(Nc2cnn(CC#N)c2)n1 [Example D-287]: > 10 µM
- C[C@@H]1[C@H](NC(=O)N(C)C)CCCN1c1cnc(C(N)=O)c(Nc2ccc3cccnc3c2)n1 [Example D-121]: 1 to 10 µM
- C[C@@H]1[C@H](NC(=O)c2cc3n(n2)CCC3)CCCN1c1cnc(C(N)=O)c(Nc2cnn(C)c2)n1 [Example D-263]: 0.1 to 1 µM
- CC1(c2ccc(Nc3nc(N4CCC[C@@H](n5ccc6cc(C7CC7)ccc6c5=O)C4)cnc3C(N)=O)cc2)CCN(C2CCCC2)CC1 [Example D-177]: 0.1 to 1 µM

Problem: Hi! What's the reported IC50 for C[C@@H]1[C@H](NC(=O)c2ccc(C(C)(C)C)cc2)CCCN1c1nnc(C(N)=O)c(Nc2cnn(C)c2)n1 [Example D-285] on UniProt:P00533?
Solution: 1 to 10 µM

Problem: Hi! What's the reported IC50 for C[C@@H]1[C@H](NC(=O)c2ccc(C(N)=O)cc2)CCCN1c1cnc(C(N)=O)c(Nc2cnn(C)c2)n1 [Example D-268] on UniProt:P00533?
Solution: 0.1 to 1 µM

---

target: ITK (Homo sapiens, UniProt Q08881); experiment: Inhibition of a panel of kinases, in vitro HotSpot kinase assay: ITK; format: biochemical; conditions: D-compounds panel data; 1 μM ATP
Sequence (Q08881 whole entry): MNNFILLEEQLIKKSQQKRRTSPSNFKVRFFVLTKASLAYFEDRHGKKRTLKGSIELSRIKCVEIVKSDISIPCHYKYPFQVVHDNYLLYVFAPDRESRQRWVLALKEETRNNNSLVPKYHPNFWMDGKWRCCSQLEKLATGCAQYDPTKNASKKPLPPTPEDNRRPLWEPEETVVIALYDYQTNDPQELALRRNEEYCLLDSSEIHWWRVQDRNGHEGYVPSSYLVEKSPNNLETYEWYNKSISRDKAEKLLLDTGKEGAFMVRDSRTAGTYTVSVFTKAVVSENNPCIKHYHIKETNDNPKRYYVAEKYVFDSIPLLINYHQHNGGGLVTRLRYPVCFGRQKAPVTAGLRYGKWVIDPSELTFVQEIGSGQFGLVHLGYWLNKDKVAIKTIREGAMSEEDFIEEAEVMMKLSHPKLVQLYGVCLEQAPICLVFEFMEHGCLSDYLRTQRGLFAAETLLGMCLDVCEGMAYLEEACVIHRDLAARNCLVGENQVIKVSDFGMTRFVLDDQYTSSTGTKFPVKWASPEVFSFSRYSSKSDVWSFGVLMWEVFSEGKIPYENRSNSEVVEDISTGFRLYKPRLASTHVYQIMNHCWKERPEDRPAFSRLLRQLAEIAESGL
IC50 values, listed per item

Check out these entries, answers already filled in.
* CN1CCN([C@@H]2CCCN(c3cnc(C(N)=O)c(Nc4cnn(C)c4)n3)C2)C1=O | 1000 to 10000 nM
* Cn1cc(Nc2nc(N3C4CCC(NC(=O)c5ccc(C6CC6)cc5)C3CC4)cnc2C(N)=O)cn1 (single isomer, unassigned) [Example D-202] | 1000 to 10000 nM

Problem: Consider the compound C[C@@H]1[C@H](NC(=O)c2ccc(C3CC3)cc2)CCCN1c1cnc(C(N)=O)c(Nc2ccc3c(c2)OC(F)(F)O3)n1 and give its measured IC50.
Solution: > 10000 nM

Problem: Consider the compound C[C@@H]1[C@H](NC(=O)c2ccc(C(N)=O)cc2)CCCN1c1cnc(C(N)=O)c(Nc2cnn(C)c2)n1 and give its measured IC50.
Solution: 100 to 1000 nM

Problem: Consider the compound Cn1cc(Nc2nc(N3CCC[C@H]4[C@@H]3CCCN4C(=O)c3ccc(C4CC4)cc3)cnc2C(N)=O)cn1 and give its measured IC50.
Solution: > 10000 nM

---

pIC50 values, listed per item
molecular target: BTK-WT (Homo sapiens); construct: purified from insect cells as a full-length construct containing an N-terminal 6X-His tag; His6 (N); made in house; host or cells: insect cells (baculovirus Sf21 in Method B); assay: Btk in vitro inhibitory activity (one of Method A TR-FRET, Method B electrophoretic mobility shift, Method C radiometric filter binding); format: biochemical; settings: D-compounds panel data; read-out: IC50 BTK-WT
Sequence (Q06187 whole entry): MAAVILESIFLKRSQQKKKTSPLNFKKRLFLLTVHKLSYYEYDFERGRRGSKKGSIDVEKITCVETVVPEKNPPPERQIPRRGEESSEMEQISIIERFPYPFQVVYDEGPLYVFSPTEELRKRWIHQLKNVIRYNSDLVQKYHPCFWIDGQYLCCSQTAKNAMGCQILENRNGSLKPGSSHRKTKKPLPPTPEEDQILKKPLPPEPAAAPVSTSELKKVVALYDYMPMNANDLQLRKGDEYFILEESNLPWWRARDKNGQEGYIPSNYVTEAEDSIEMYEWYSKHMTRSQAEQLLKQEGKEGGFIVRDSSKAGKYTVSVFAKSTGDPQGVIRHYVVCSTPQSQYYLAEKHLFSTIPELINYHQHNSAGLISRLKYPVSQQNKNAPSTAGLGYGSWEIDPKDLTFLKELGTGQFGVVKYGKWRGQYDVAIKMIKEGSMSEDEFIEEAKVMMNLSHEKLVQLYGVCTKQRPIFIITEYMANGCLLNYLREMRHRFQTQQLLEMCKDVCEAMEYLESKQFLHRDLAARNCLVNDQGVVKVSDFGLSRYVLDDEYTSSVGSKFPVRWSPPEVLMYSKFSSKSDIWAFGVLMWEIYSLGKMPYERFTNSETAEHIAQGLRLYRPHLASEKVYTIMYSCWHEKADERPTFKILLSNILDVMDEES
pIC50: −log10 of the molar value.

• C[C@@H]1[C@H](NC(=O)N(C)C)CCCN1c1cnc(C(N)=O)c(Nc2cnn(C)c2)n1 = ≥ 8.00
• COCCn1cc(Nc2nc(N3CCC[C@@H](NC(=O)c4ccc(C5CC5)cc4)[C@H]3C)cnc2C(N)=O)cn1 = ≥ 8.00
• C[C@@H]1[C@H](NC(=O)c2c[nH]c(C3CC3)n2)CCCN1c1cnc(C(N)=O)c(Nc2cnn(C)c2)n1 = ≥ 8.00

Problem: Consider the molecule C[C@@H]1[C@H](NC(=O)c2ccc(C3CC3)cc2)CCCN1c1cnc(C(N)=O)c(Nc2ccc(N3CCN(C)CC3)cc2F)n1 and give its measured pIC50.
Solution: ≥ 8.00

Problem: Consider the molecule CC(C)c1ccc(C(=O)N[C@@H]2CCCN(c3cnc(C(N)=O)c(Nc4cnn(C)c4)n3)[C@@H]2C)cc1 and give its measured pIC50.
Solution: ≥ 8.00

Problem: Consider the molecule C[C@@H]1[C@H](NC(=O)c2ccc(C3CC3)cc2)CCCN1c1cnc(C(N)=O)c(Nc2cnn(CC3CCC(F)(F)CC3)c2)n1 and give its measured pIC50.
Solution: 7.00 to 8.00

Problem: Consider the molecule C[C@@H]1[C@H](NC(=O)c2ccc(C(C)(C)N)cc2)CCCN1c1cnc(C(N)=O)c(Nc2cnn(C)c2)n1 and give its measured pIC50.
Solution: ≥ 8.00

---

target: BTK-WT (Homo sapiens); construct: purified from insect cells as a full-length construct containing an N-terminal 6X-His tag; His6 (N); made in house; host or cells: insect cells (baculovirus Sf21 in Method B); test: Btk in vitro inhibitory activity (one of Method A TR-FRET, Method B electrophoretic mobility shift, Method C radiometric filter binding); type: biochemical; details: Table 10, Formula A-I; read-out: BTK-WT (IC50)
IC50 values, listed per item

• C=CC(=O)N[C@@H]1CCCN(c2cnc(C(N)=O)c(Nc3ccc(C4CCN(C5CCCC5)CC4)cc3)n2)[C@@H]1C = ≤ 100 nM
• Cc1cc(Nc2nc(N3CCC[C@@H](NC(=O)c4ccc(N(C)C)cc4)[C@H]3C)cnc2C(N)=O)sn1 = ≤ 100 nM
• Cc1cc(Nc2cc(N3CCC[C@@H](NC(=O)N(C)C)C3)cnc2C(N)=O)sn1 = 100 to 1000 nM

Kindly review the next molecule as well.
Problem: Hi! What's the reported IC50 for C=CC(=O)N1CCCN(c2nnc(C(N)=O)c(Nc3ccc(C(C)C)cc3)n2)CC1 on BTK-WT (Homo sapiens)?
Solution: ≤ 100 nM

---

biological target: TEC (Homo sapiens, UniProt P42680); experiment: Inhibition of a panel of kinases, in vitro HotSpot kinase assay: TEC; type: biochemical; details: D-compounds panel data; 1 μM ATP
Sequence (P42680 whole entry): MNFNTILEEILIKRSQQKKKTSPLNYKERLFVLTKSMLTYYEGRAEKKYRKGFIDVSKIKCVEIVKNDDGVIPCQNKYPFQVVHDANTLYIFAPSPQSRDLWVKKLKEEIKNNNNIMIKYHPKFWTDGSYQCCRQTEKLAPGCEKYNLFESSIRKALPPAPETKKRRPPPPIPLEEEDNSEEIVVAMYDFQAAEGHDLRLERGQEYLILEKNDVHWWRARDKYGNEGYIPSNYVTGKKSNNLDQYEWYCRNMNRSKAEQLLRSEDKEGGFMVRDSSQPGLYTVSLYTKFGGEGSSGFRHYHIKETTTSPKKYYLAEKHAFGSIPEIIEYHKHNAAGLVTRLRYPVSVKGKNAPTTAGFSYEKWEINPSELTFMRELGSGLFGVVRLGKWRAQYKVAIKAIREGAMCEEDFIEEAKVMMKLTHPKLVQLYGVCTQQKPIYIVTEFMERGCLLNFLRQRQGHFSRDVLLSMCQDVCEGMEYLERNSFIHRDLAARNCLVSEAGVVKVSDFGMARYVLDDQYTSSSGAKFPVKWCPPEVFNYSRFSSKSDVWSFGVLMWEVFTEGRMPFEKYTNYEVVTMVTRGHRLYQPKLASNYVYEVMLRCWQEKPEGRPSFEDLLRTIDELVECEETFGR
IC50 values, listed per item

• C[C@H]1C[C@H](NC(=O)c2ccc(C3CC3)cc2)CN(c2cnc(C(N)=O)c(Nc3cnn(C)c3)n2)C1 = 1000 to 10000 nM

Problem: Consider the compound Cc1cc(Nc2nc(N3C[C@@H](NC(=O)c4ccc(C5CC5)cc4F)CC[C@@H]3C)cnc2C(N)=O)sn1 and give its measured IC50.
Solution: 1000 to 10000 nM

---

biological target: TEC (Homo sapiens, UniProt P42680); test: Inhibition of a panel of kinases, in vitro HotSpot kinase assay: TEC; type: biochemical; details: D-compounds panel data; 1 μM ATP
IC50 values, listed per item

Check out these entries, answers already filled in.
* CN1CCN(C(=O)c2ccc(Nc3nc(N[C@H]4CC[C@H](NC(=O)N(C)C)CC4)cnc3C(N)=O)cc2)CC1 | 1000 to 10000 nM
* C[C@@H]1[C@H](NC(=O)c2ccc(C(C)(C)O)cc2F)CCCN1c1cnc(C(N)=O)c(Nc2cnn(C)c2)n1 | ≤ 10 nM

Kindly review the next molecule as well.
Problem: Consider the molecule C[C@@H]1[C@H](NC(=O)c2ccc(C3CC3)cc2)CCCN1c1cnc(C(N)=O)c(Nc2ccc(OC3CCN(C)CC3)cc2)n1 and give its measured IC50.
Solution: 10 to 100 nM
